Test system: BRM-dependent transcription (BRG1 mutant lung cancer cell line A549)
Assay: BRM-dependent transcription, MMTV luciferase reporter in BRG1 mutant A549 cells
Format: cell-based
Conditions: A549-MMTV luciferase reporter, dexamethasone induced, 6 hours, Table 11
pIC50: −log10 of the molar value.
Test readout: pIC50

Some entries whose results are on file:
* CCOc1nc([C@@H](F)CF)ccc1-c1ccc2cnc(CNC(=O)c3cc(Cl)c4c(c3)S(=O)(=O)[C@@H](F)COC4)cc2n1 | 7.92
* [2H]C([2H])([2H])Oc1ccc(-c2ccc3cnc(CNC(=O)c4cc(Cl)c5c(c4)S(=O)(=O)[C@@H](F)COC5)cc3n2)nc1C1CC1(F)F (stereo partly drawn) | 7.87
* CCOc1nc([C@@H](F)CF)ccc1-c1ccc2cnc(CNC(=O)c3cc(C(F)F)c4c(c3)S(=O)(=O)[C@@H](F)COC4)cc2n1 [Compound 457] | 8.14

A = C[C@@H]1CCN1c1cnc2c(-c3ccc4cnc(CNC(=O)c5cc(F)c6c(c5)S(=O)(=O)[C@@H](F)COC6)cc4n3)cccc2c1 [Compound 496]
B = CCOc1nc(C(C)(F)F)ccc1-c1ccc2cnc(CNC(=O)c3cc(F)c4c(c3)S(=O)(=O)[C@@H](F)COC4)cc2n1 [Compound 468]
C = CCOc1nc([C@@H](F)CF)ccc1-c1ccc2cnc(CNC(=O)c3cc(Br)c4c(c3)S(=O)(=O)[C@@H](F)COC4)cc2n1 [Compound 456]
-- ask List from greatest to least pIC50. Your reply should list the labels following the order given in the request.
-- reply A, B, C

###

System: BRM-dependent transcription (BRG1 mutant lung cancer cell line A549)
Assay: BRM-dependent transcription, MMTV luciferase reporter in BRG1 mutant A549 cells
Assay type: cell-based
Conditions: MMTV luciferase reporter cell lines, selectivity BRG1/BRM, Table 11
Test readout: Ratio (MDA-MMTV IC50 (μM) divided by A549-MMTV IC50 (μM))

Some entries whose results are on file:
- [2H]C([2H])([2H])[C@@]([2H])(F)c1ccc(-c2ccc3cnc(CNC(=O)c4cc(Br)c5c(c4)S(=O)(=O)[C@@H](F)COC5)cc3n2)c(OC)n1: 38.00
- [2H]C([2H])([2H])OC([2H])([2H])C([2H])([2H])Oc1cnc2c(c1)OCCN2c1ccc2cnc(CNC(=O)c3cc(C(F)F)c4c(c3)S(=O)(=O)[C@@H](F)COC4)cc2n1: 21.12

P = O=C(NCc1cc2nc(-c3cccc(OC(F)F)c3F)ccc2cn1)c1cc(Cl)c2c(c1)S(=O)(=O)[C@@H](F)COC2
Q = O=C(NCc1cc2nc(-n3cc(F)c(OC(F)F)n3)ccc2cn1)c1cc(Cl)c2c(c1)S(=O)(=O)[C@@H](F)COC2
-- ask Pick the one with the larger Ratio (MDA-MMTV IC50 (μM) divided by A549-MMTV IC50 (μM)): P vs Q I would appreciate it if you answered with the label of your choice.
-- reply Q

###

Biological target: BRM (Homo sapiens)
Construct: made in house; host or cells: High Five insect cells
Assay: ATPase catalytic activity assay (ADP-Glo), BRM
Assay type: biochemical
Settings: ATPase assay, selectivity BRG1/BRM, Table 10
Experimental: The ATPase catalytic activity of BRM or BRG-1 was measured by an in vitro biochemical assay using ADP-Glo™ (Promega, V9102). The ADP-Glo™ kinase assay is performed in two steps once the reaction is complete. The first step is to deplete any unconsumed ATP in the reaction. The second step is to convert the reaction product ADP to ATP, which will be utilized by the luciferase to generate luminesce and be detected by a luminescence reader, such as Envision. […]
Test readout: Ratio (BRG1 IC50 (μM) divided by BRM IC50 (μM))

Some entries whose results are on file:
• COc1cc(F)ccc1-c1ccc2cnc(CNC(=O)c3cc(F)c4c(c3)S(=O)(=O)[C@@H](F)CCO4)cc2n1 [Compound 266] = 18.84
• O=C(NCc1cc2nc(N3CCOc4cc(N5CC(F)C5)cnc43)ccc2cn1)c1cc(F)c2c(c1)S(=O)(=O)[C@@H](F)CCO2 [Compound 139] = 24.09
• O=C(NCc1cc2nc(N3CCOc4cc(C(F)F)cnc43)ccc2cn1)c1cc(F)c2c(c1)S(=O)(=O)[C@@H](F)COC2 [Compound 32] = 18.96
• COc1nc(C(F)F)ccc1-c1ccc2cnc(CNC(=O)c3cc(F)c4c(c3)S(=O)(=O)[C@@H](F)CCO4)cc2n1 [Compound 177] = 22.67
• O=C(NCc1cc2nc(-c3cccc([C@@H]4CC4(F)F)n3)ccc2cn1)c1cc(F)c2c(c1)S(=O)(=O)[C@@H](F)COC2 [Compound 253] = 22.99

I = O=C(NCc1cc2nc(N3CCOc4cc(N5C[C@@H](F)[C@H](F)C5)cnc43)ccc2cn1)c1cc(Cl)c2c(c1)S(=O)(=O)[C@@H](F)COC2 [Compound 121]
II = O=C(NCc1cc2nc(N3CCOc4cc([C@@H]5CC5(F)F)cnc43)ccc2cn1)c1cc(F)c2c(c1)S(=O)(=O)[C@@H](F)CCO2 [Compound 87]
III = CN(CC(F)F)c1cnc2c(c1)OCCN2c1ccc2cnc(CNC(=O)c3cc(F)c4c(c3)S(=O)(=O)[C@@H](F)CCO4)cc2n1 [Compound 105]
IV = O=C(NCc1cc2nc(N3CCCc4sc(C5CC5)nc43)ccc2cn1)c1cc(F)c2c(c1)S(=O)(=O)[C@@H](F)CCO2 [Compound 178]
V = O=C(NCc1cc2nc(-c3cccc(OC(F)F)n3)ccc2cn1)c1cc(Cl)c2c(c1)S(=O)(=O)[C@@H](F)CCO2 [Compound 225]
-- ask List from greatest to least Ratio (BRG1 IC50 (μM) divided by BRM IC50 (μM)). Your reply should list the labels following the order given in the request.
-- reply V, IV, II, I, III

###

Target: BRM (Homo sapiens, UniProt P51531)
Construct: made in house; host or cells: High Five insect cells
Sequence (P51531 whole entry): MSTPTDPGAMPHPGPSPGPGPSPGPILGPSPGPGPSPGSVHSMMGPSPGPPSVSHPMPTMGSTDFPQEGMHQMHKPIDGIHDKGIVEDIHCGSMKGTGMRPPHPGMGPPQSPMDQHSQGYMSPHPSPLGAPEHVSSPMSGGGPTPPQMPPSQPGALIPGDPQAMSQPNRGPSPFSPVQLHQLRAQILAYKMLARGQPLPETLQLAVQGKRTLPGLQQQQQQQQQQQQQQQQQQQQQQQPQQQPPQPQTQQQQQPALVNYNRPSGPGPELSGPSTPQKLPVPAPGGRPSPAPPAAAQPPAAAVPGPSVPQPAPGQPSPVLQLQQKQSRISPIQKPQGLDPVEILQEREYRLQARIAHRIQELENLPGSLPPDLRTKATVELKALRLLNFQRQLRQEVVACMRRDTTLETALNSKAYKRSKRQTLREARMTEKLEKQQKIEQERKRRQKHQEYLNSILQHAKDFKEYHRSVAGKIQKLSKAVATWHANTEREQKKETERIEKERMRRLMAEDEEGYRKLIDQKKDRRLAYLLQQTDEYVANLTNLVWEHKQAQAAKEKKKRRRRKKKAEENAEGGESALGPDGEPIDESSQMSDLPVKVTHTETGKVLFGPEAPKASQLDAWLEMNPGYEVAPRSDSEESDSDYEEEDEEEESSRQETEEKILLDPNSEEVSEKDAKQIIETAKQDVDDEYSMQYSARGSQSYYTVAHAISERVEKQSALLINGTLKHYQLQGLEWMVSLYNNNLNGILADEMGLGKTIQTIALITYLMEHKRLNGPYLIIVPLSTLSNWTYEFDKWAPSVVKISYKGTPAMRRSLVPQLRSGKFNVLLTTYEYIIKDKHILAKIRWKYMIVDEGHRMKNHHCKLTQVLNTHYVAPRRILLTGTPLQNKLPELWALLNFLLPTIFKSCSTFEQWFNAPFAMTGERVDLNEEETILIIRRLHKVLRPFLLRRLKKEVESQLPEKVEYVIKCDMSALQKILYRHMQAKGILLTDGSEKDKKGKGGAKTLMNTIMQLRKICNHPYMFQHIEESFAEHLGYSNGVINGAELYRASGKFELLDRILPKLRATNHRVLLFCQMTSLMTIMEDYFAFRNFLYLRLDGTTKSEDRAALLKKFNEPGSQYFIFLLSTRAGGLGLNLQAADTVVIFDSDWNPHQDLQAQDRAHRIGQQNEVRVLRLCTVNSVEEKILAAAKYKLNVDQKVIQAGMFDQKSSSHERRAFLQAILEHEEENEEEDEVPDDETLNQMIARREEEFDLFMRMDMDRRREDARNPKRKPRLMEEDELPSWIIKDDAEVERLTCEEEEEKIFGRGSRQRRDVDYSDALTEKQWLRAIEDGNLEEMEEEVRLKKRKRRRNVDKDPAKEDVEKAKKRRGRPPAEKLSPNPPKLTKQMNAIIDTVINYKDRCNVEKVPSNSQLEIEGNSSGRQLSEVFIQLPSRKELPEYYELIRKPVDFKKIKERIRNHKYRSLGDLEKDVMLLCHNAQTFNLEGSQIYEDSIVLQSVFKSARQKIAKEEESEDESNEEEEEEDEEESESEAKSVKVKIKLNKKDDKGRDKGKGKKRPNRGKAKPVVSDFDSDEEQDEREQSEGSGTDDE
Assay: ATPase catalytic activity assay (ADP-Glo), BRM
Assay type: biochemical
Details: ATPase assay, selectivity BRG1/BRM, Table 10
Test readout: Ratio (BRG1 IC50 (μM) divided by BRM IC50 (μM))

- [2H]C1([2H])Oc2c(F)cc(C(=O)NCc3cc4nc(-c5ccc(C(F)F)nc5OC)ccc4cn3)cc2S(=O)(=O)[C@@]([2H])(F)C1([2H])[2H]: 25.97
- O=C(NCc1cc2cc(-c3cccc([C@@H]4CC4(F)F)n3)ccc2cn1)c1cc(F)c2c(c1)S(=O)(=O)[C@@H](F)CCO2: 22.51
- C[C@H]1OC[C@H](F)S(=O)(=O)c2cc(C(=O)NCc3cc4nc(N5CCOc6cc(C7CC7)cnc65)ccc4cn3)ccc21: 17.63
- COc1nc(-c2ccc3cnc(CNC(=O)c4cc(F)c5c(c4)S(=O)(=O)[C@@H](F)CCO5)cc3n2)ccc1[C@H](F)CF: 9.91

a = COc1nc(C(F)F)ccc1-c1ccc2cnc(CNC(=O)c3cc(F)c4c(c3)S(=O)(=O)[C@@H](F)CCO4)c(F)c2n1
b = O=C(NCc1cc2cc(-c3cncc(C4CCC4)n3)ccc2cn1)c1cc(F)c2c(c1)S(=O)(=O)[C@@H](F)CCO2
-- ask Pick the one with the larger Ratio (BRG1 IC50 (μM) divided by BRM IC50 (μM)): a vs b I would appreciate it if you answered with the label of your choice.
-- reply b
(b: 28.86, a: 13.12)

I = CO[C@@H]1C[C@H]1c1cnc2c(c1)OCCN2c1ccc2cnc(CNC(=O)c3cc(F)c4c(c3)S(=O)(=O)[C@@H](F)CCO4)cc2n1
II = COc1nc(C)ccc1-c1ccc2cnc(CNC(=O)c3cc(F)c4c(c3)S(=O)(=O)[C@@H](F)CCO4)cc2n1 [Compound 245]
III = C[C@@H]1CCN1c1cnc2c(c1)OCCN2c1ccc2cnc(CNC(=O)c3cc(Br)c4c(c3)S(=O)(=O)[C@@H](F)CCO4)cc2n1
-- ask Write the entries in order, lowest recorded Ratio (BRG1 IC50 (μM) divided by BRM IC50 (μM)) first. Your reply should list the labels following the order given in the request.
-- reply I, II, III

###

Target: BRM (Homo sapiens)
pIC50: −log10 of the molar value.
Test readout: pIC50

- O=C(NCc1cc2nc(N3CCOc4cc(N5CC(F)(F)C5)cnc43)ccc2cn1)c1cc(F)c2c(c1)S(=O)(=O)[C@@H](F)CCO2 [Compound 244]: 8.11

P = O=C(NCc1cc2nc(N3CCOc4cc(N5CC[C@H](F)[C@@H](F)C5)cnc43)ccc2cn1)c1cc(Cl)c2c(c1)S(=O)(=O)[C@@H](F)COC2 [Compound 112]
Q = C[C@@H]1CN(c2nccc(-c3ccc4cnc(CNC(=O)c5cc(F)c6c(c5)S(=O)(=O)[C@@H](F)CCO6)cc4c3)n2)C[C@H](C)O1 [Compound 16]
-- ask Pick the one with the larger pIC50: P vs Q I would appreciate it if you answered with the label of your choice.
-- reply Q
(Q: 8.82, P: 8.41)
